Target or system: hTREM2 (Homo sapiens, UniProt Q9NZC2)
Sequence (Q9NZC2 19-230): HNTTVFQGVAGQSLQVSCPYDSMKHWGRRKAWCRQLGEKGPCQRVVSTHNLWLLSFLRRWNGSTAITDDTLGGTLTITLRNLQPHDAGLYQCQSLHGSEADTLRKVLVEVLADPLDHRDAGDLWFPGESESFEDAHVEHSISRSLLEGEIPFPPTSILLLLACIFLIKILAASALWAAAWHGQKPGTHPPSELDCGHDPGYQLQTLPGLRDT
Sequence (O43914 22-113 partner): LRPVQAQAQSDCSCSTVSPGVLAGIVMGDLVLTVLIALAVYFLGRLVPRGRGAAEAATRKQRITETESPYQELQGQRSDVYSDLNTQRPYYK
Protocol notes: TREM2 activity by cellular Syk phosphorylation (AlphaScreen/AlphaLISA) in TREM2/DAP12-HEK cells, used for Examples 1-305
Assay type: cell-based
Set-up: expressed in transfected cells
Test parameters: HEK293 Cells

# Compound, hTREM2 Emax
data = [
    ("Cc1ccc(-c2nc([C@@H]3CCO[C@H](c4cnn(C)c4)C3)nc3nc(C)c(C)cc23)c(F)c1 (single isomer, unassigned) [Example 202]", "++ (Emax>100 and ≤150)"),
    ("Cc1ccc2c(n1)nc(N1CCO[C@@H](c3cnn(C)c3)C1)nc2[C@H]1CC[C@@H](C(F)(F)F)CC1 [Example 142]", "++ (Emax>100 and ≤150)"),
]
